FYI, the data here is from paper PMC9643456.

System: MDR P. aeruginosa
Test: microbe, parasite or virus in culture
Details: CLSI broth microdilution; CAMHB with 50 mg/L Ca2+, 10 mg/L Mg2+; 5 × 10^5 CFU/ml; 18 h 37 °C; no visible turbidity; triplicate; strain CCARM 2180
Square brackets hold non-standard residues; d marks the D form. Peptide text beside a SMILES is read from it. Trp(2,5,7-tBu3) = CC(C)(C)c1cc(C(C)(C)C)c2[nH]c(C(C)(C)C)c(C[C@H](N)C(=O)O)c2c1; Trp(5-OH) = N[C@@H](Cc1c[nH]c2ccc(O)cc12)C(=O)O
Overview of reported Minimum inhibitory concentrations, MDR P. aeruginosa across a group of compounds:

CC[C@@H](C)[C@@H](NC(=O)[C@@H](Cc1c[nH]c2ccccc12)NC(=O)[C@@H](CCCCN)NC(=O)[C@@H](CC(C)C)NC(=O)[C@H](N)Cc1c[nH]c2ccccc12)C(=O)NCC(=O)N[C@H](CC(C)C)C(=O)N[C@H](CCCNC(=N)N)C(=O)N[C@H](CCCCN)C(=O)N[C@H](CCCCN)C(=O)N[C@H](CCCNC(=N)N)C(N)=O [WCopWK] (H-[dW][dL][dK][dW][dI]G[dL][dR][dK][dK][dR]-NH2)    >20 µM
CC(C)C[C@@H](NC(=O)[C@H](N)Cc1c[nH]c2ccccc12)C(=O)N[C@H](CC(C)C)C(=O)N[C@H](Cc1c[nH]c2ccccc12)C(=O)N[C@H](C)C(=O)NCC(=O)N[C@H](C)C(=O)N[C@H](CCCNC(=N)N)C(=O)N[C@H](CCCCN)C(=O)N[C@H](CCCCN)C(=O)N[C@H](CCCNC(=N)N)C(N)=O [WCopW21] (H-[dW][dL][dL][dW][dA]G[dA][dR][dK][dK][dR]-NH2)    > 20 µM

compound CC[C@H](C)[C@H](NC(=O)[C@H](Cc1c[nH]c2ccccc12)NC(=O)[C@H](CC(C)C)NC(=O)[C@H](CC(C)C)NC(=O)[C@@H](N)Cc1c(C(C)(C)C)[nH]c2c(C(C)(C)C)cc(C(C)(C)C)cc12)C(=O)N[C@@H](C)C(=O)N[C@@H](CC(C)C)C(=O)N[C@@H](CCCNC(=N)N)C(=O)N[C@@H](CCCCN)C(=O)N[C@@H](CCCCN)C(N)=O [WtCopW] (H-[Trp(2,5,7-tBu3)]LLWIALRKK-NH2) , Minimum inhibitory concentrations, MDR P. aeruginosa observed: > 20 µM

compound CC[C@H](C)[C@H](NC(=O)[C@H](Cc1c[nH]c2ccc(O)cc12)NC(=O)[C@H](CC(C)C)NC(=O)[C@H](CC(C)C)NC(=O)[C@@H](N)Cc1c[nH]c2ccc(O)cc12)C(=O)N[C@@H](C)C(=O)N[C@@H](CC(C)C)C(=O)N[C@@H](CCCNC(=N)N)C(=O)N[C@@H](CCCCN)C(=O)N[C@@H](CCCCN)C(N)=O [WhCopW] (H-[Trp(5-OH)]LL[Trp(5-OH)]IALRKK-NH2) , Minimum inhibitory concentrations, MDR P. aeruginosa observed: > 20 µM

* * *

Overview of reported Minimum inhibitory concentrations, MDR S. aureus across a group of compounds:
Tested on: MDR S. aureus
Experiment: microbe, parasite or virus in culture
Settings: CLSI broth microdilution; CAMHB with 50 mg/L Ca2+, 10 mg/L Mg2+; 5 × 10^5 CFU/ml; 18 h 37 °C; triplicate; strain KCCM 40510
Square brackets hold non-standard residues; d marks the D form. Peptide text beside a SMILES is read from it.
Enter the number, and then the unit.

Here's what some known entries look like.
CC[C@@H](C)[C@@H](NC(=O)[C@@H](Cc1c[nH]c2ccccc12)NC(=O)[C@H](NC(=O)[C@@H](CC(C)C)NC(=O)[C@H](N)Cc1c[nH]c2ccccc12)C(C)C)C(=O)N[C@H](Cc1c[nH]c2ccccc12)C(=O)N[C@H](CCCNC(=N)N)C(=O)N[C@H](CCCNC(=N)N)C(N)=O [WCopW32] (H-[dW][dL][dV][dW][dI][dW][dR][dR]-NH2)    0.63 µM
CC(C)C[C@@H](NC(=O)[C@H](N)Cc1c[nH]c2ccccc12)C(=O)N[C@@H](C(=O)N[C@H](Cc1c[nH]c2ccccc12)C(=O)N[C@H](CCCCN)C(=O)N[C@H](Cc1c[nH]c2ccccc12)C(=O)N[C@H](CCCNC(=N)N)C(=O)N[C@H](CCCNC(=N)N)C(=O)N[C@H](CCCNC(=N)N)C(N)=O)C(C)C [WCopW37] (H-[dW][dL][dV][dW][dK][dW][dR][dR][dR]-NH2)    5 µM

Proceeding to the next compound to report its Minimum inhibitory concentrations, MDR S. aureus.
compound CC[C@@H](C)[C@@H](NC(=O)[C@@H](Cc1c[nH]c2ccccc12)NC(=O)[C@@H](Cc1ccccc1)NC(=O)[C@@H](CC(C)C)NC(=O)[C@H](N)Cc1c[nH]c2ccccc12)C(=O)NCC(=O)N[C@H](CC(C)C)C(=O)N[C@H](CCCNC(=N)N)C(=O)N[C@H](CCCCN)C(=O)N[C@H](CCCCN)C(=O)N[C@H](CCCNC(=N)N)C(N)=O [WCopWF] (H-[dW][dL][dF][dW][dI]G[dL][dR][dK][dK][dR]-NH2) , Minimum inhibitory concentrations, MDR S. aureus observed: 2.5 µM

* * *

System: human red blood cells
Experiment: Hemolytic activity
Type: cell-based
Settings: red cells of human, 18 h, 100
Square brackets hold non-standard residues; d marks the D form. Peptide text beside a SMILES is read from it.
Overview of reported Hemolysis percent, 100 μM across a group of compounds:
Enter the number, and then the unit.

CC[C@@H](C)[C@@H](NC(=O)[C@@H](Cc1c[nH]c2ccccc12)NC(=O)[C@@H](CC(C)C)NC(=O)[C@H](N)CC(C)C)C(=O)NCC(=O)N[C@H](CC(C)C)C(=O)N[C@H](CCCCN)C(=O)N[C@H](CCCCN)C(=O)N[C@H](CCCCN)C(=O)N[C@H](CCCCN)C(N)=O [WCopW14] (H-[dL][dL][dW][dI]G[dL][dK][dK][dK][dK]-NH2)    1.10%
CC[C@@H](C)[C@@H](NC(=O)[C@@H](Cc1c[nH]c2ccccc12)NC(=O)[C@@H](CC(C)C)NC(=O)[C@H](N)Cc1c[nH]c2ccccc12)C(=O)N[C@H](Cc1c[nH]c2ccccc12)C(=O)N[C@H](CCCNC(=N)N)C(=O)N[C@H](CCCNC(=N)N)C(=O)N[C@H](CCCNC(=N)N)C(N)=O [WCopW41] (H-[dW][dL][dW][dI][dW][dR][dR][dR]-NH2)    0.42 ±0.06%

compound CC[C@@H](C)[C@@H](NC(=O)[C@@H](Cc1c[nH]c2ccccc12)NC(=O)[C@@H](CC(C)C)NC(=O)[C@@H](CC(C)C)NC(=O)[C@H](N)Cc1c[nH]c2ccccc12)C(=O)N[C@H](C)C(=O)N[C@H](CC(C)C)C(=O)N[C@H](CCCNC(=N)N)C(=O)N[C@H](CCCCN)C(=O)N[C@H](CCCCN)C(N)=O [WCopW7] (H-[dW][dL][dL][dW][dI][dA][dL][dR][dK][dK]-NH2) , Hemolysis percent, 100 μM observed: 14.99%

* * *

Tested on: MDR A. baumannii
Assay: microbe, parasite or virus in culture
Conditions: CLSI broth microdilution; CAMHB with 50 mg/L Ca2+, 10 mg/L Mg2+; 5 × 10^5 CFU/ml; 18 h 37 °C; triplicate; strain ATCC BAA-1605
Square brackets hold non-standard residues; d marks the D form. Peptide text beside a SMILES is read from it.
observation-type: Minimum inhibitory concentrations, MDR A. baumannii

Here's what some known entries look like.
CC[C@@H](C)[C@@H](NC(=O)[C@@H](Cc1c[nH]c2ccccc12)NC(=O)[C@@H](Cc1ccc(O)cc1)NC(=O)[C@@H](CC(C)C)NC(=O)[C@H](N)Cc1c[nH]c2ccccc12)C(=O)NCC(=O)N[C@H](CC(C)C)C(=O)N[C@H](CCCNC(=N)N)C(=O)N[C@H](CCCCN)C(=O)N[C@H](CCCCN)C(=O)N[C@H](CCCNC(=N)N)C(N)=O [WCopWY] (H-[dW][dL][dY][dW][dI]G[dL][dR][dK][dK][dR]-NH2)    1.25 µM
CC[C@@H](C)[C@@H](NC(=O)[C@@H](Cc1c[nH]c2ccccc12)NC(=O)[C@@H](CC(C)C)NC(=O)[C@@H](CC(C)C)NC(=O)[C@@H](Cc1c[nH]c2ccccc12)NC(=O)[C@@H](N)CO)C(=O)NCC(=O)N[C@H](CC(C)C)C(=O)N[C@H](CCCNC(=N)N)C(=O)N[C@H](CCCCN)C(=O)N[C@H](CCCCN)C(=O)N[C@H](CCCNC(=N)N)C(N)=O [WCopW19] (H-S[dW][dL][dL][dW][dI]G[dL][dR][dK][dK][dR]-NH2)    2.5 µM

Proceeding to the next compound to report its Minimum inhibitory concentrations, MDR A. baumannii.
compound CC[C@@H](C)[C@@H](NC(=O)[C@@H](Cc1c[nH]c2ccccc12)NC(=O)[C@@H](CC(C)C)NC(=O)[C@H](N)Cc1c[nH]c2ccccc12)C(=O)N[C@H](Cc1c[nH]c2ccccc12)C(=O)N[C@H](CCCNC(=N)N)C(=O)N[C@H](CCCNC(=N)N)C(=O)N[C@H](CCCNC(=N)N)C(N)=O [WCopW41] (H-[dW][dL][dW][dI][dW][dR][dR][dR]-NH2) , Minimum inhibitory concentrations, MDR A. baumannii observed: 2.5 µM
